This section presents compounds with their documented pIC50 values.
Molecular target: human GPR17 short isoform (Homo sapiens)
Sequence (Q13304 29-367): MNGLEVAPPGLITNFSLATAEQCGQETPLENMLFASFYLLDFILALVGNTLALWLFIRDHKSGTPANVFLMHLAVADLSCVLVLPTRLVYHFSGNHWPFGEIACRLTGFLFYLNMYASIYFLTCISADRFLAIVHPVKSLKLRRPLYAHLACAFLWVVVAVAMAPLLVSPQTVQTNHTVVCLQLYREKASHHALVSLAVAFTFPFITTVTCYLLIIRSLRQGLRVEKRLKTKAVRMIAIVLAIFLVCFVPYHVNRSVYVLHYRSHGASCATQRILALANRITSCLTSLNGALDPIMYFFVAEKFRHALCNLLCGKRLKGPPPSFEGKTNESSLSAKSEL
Assay: hGPR17 cAMP assay (GPR17 cAMP Assay Protocol, antagonist mode)
Settings: CHO-K1 cells stably expressing untagged human GPR17 short isoform; EC80 of agonist MDL29,951; forskolin 15 μM; 30 min, room temperature; TR-FRET cAMP readout
Please treat pIC50 as minus the base-10 logarithm of the molar concentration.

compound	systemName	pIC50
COc1nc(NS(=O)(=O)c2c[nH]c(=O)c3cc(Cl)ccc23)c(F)cc1OCC(F)F [Example 25]	human GPR17 short isoform (Homo sapiens)	7.30
COc1nc(OCC(F)F)c(F)cc1NS(=O)(=O)c1cnc(N(C)C)c2cc(Cl)ccc12 [Example 41]	human GPR17 short isoform (Homo sapiens)	7.21
Cc1ccc(S(=O)(=O)Nc2cc(F)c(CC#N)cc2F)c2cccnc12 [Example 47]	human GPR17 short isoform (Homo sapiens)	6.03

Task item: What value of pIC50 has been reported for the following compound? COc1nc(NS(=O)(=O)c2cccc3nc(Cl)ccc23)nc(OC)c1CC(F)F [Example 8]
Reply: 6.76

Task item: Also check COc1nc(NS(=O)(=O)c2cccc3nc(Cl)ccc23)c(F)cc1OCC(F)F [Example 9]
Reply: 6.31

Task item: Would you kindly repeat that for COc1nc(OCC(F)F)c(F)cc1NS(=O)(=O)c1cncc2nc(Cl)ccc12 [Example 50] ?
Reply: 7.42

Task item: Same lookup for COc1nc(NS(=O)(=O)c2c[nH]c(=O)c3cc(Cl)ccc23)ncc1OCCF [Example 22] , please.
Reply: 6.48

Task item: // same read-out, input: O=S(=O)(Nc1cc(F)c(OC(F)F)nc1OC(F)F)c1cccc2nc(Cl)ccc12 [Example 11]
Reply: 6.95

Task item: Input COc1nc(NS(=O)(=O)c2cccc3nc(Cl)ccc23)nc(OC)c1OC(F)F [Example 51]
Reply: 6.35

Task item: Same read-out for COc1nc(NS(=O)(=O)c2c[nH]c(=O)c3cc(Cl)ccc23)nc(OC)c1CC(F)F [Example 24] ?
Reply: 6.56

Task item: Param item: COc1nc(OCC(F)F)c(F)cc1NS(=O)(=O)c1c[nH]c(=O)c2nc(Cl)ccc12 [Example 29]
Reply: 7.52

Task item: Ok, now COc1nc(OCC(F)F)c(F)cc1NS(=O)(=O)c1cccc2nc(N(C)C)ccc12 [Example 31]
Reply: 7.19

Task item: Same question for COc1nc(OCC(F)F)c(F)cc1NS(=O)(=O)c1cccc2ccc(Cl)cc12 [Example 19] please.
Reply: 7.05
